The measured values listed here are drawn from patent US20060058390A1.

# Procedure summary: in vivo
# Condition: male, Sprague-Dawley, rat, plasma, po, 150 mg/kg, Mean Plasma Concentrations of D-Methionine, PO 150 mg/kg, solution; 6.00 h
Measurement name: concentration at 6 h (ng/mL)

smiles_entry=CSCC[C@@H](N)C(=O)O measurement_name="concentration at 6 h" observed=3.4

* * *

# Procedure summary: in vivo
# Condition: male, Sprague-Dawley, rat, plasma, po, 150 mg/kg, AUC(0-inf) of D-Methionine, PO 150 mg/kg, suspension
Measurement name: AUC(0-inf) (µg·h/mL)

smiles_entry=CSCC[C@@H](N)C(=O)O observed=120

* * *

# Procedure summary: in vivo
# Condition: male, Sprague-Dawley, rat, plasma, iv, 150 mg/kg
Measurement name: clearance (mL/min/kg)

smiles_entry=CSCC[C@@H](N)C(=O)O measurement_name=clearance unit_abbrev=mL/min/kg observed=9.28

* * *

# Procedure summary: in vivo
# Condition: male, Sprague-Dawley, rat, plasma, po, 150 mg/kg, Mean Plasma Concentrations of D-Methionine, PO 150 mg/kg, suspension; 0.50 h
Measurement name: concentration at 0.5 h (ng/mL)

smiles_entry=CSCC[C@@H](N)C(=O)O unit_abbrev=ng/mL observed=71.1

* * *

# Procedure summary: in vivo
# Condition: male, Sprague-Dawley, rat, plasma, po, 300 mg/kg, Mean Plasma Concentrations of D-Methionine, PO 300 mg/kg, suspension; 0.25 h
Measurement name: concentration at 0.25 h (ng/mL)

smiles_entry=CSCC[C@@H](N)C(=O)O observed=120

* * *

# Procedure summary: in vivo
# Condition: male, Sprague-Dawley, rat, plasma, iv, 150 mg/kg, Mean Plasma Concentrations of D-Methionine, IV 150 mg/kg, solution; 2.00 h
Measurement name: concentration at 2 h (ng/mL)

smiles_entry=CSCC[C@@H](N)C(=O)O measurement_name="concentration at 2 h" unit_abbrev=ng/mL observed=32.2

* * *

# Procedure summary: in vivo
# Condition: male, Sprague-Dawley, rat, plasma, po, 300 mg/kg, AUC(0-inf) of D-Methionine, PO 300 mg/kg, suspension
# Method: Twenty-six male Sprague-Dawley rats weighing approximately 200 to 300 g were used for the study. The jugular vein of six animals were cannulated and the rest of the animals were used without any further preparation. Dosing was conducted on two occasions. […] The drug was prepared in a suspension formulation in accordance with the present invention. […] L-Methinione can also be detected under the same HPLC conditions. […]
Measurement name: AUC(0-inf) (µg·h/mL)

smiles_entry=CSCC[C@@H](N)C(=O)O unit_abbrev=µg·h/mL observed=359

* * *

# Procedure summary: in vivo
# Condition: male, Sprague-Dawley, rat, plasma, iv, 150 mg/kg, Mean Plasma Concentrations of D-Methionine, IV 150 mg/kg, solution; 0.00 h (predose)
Measurement name: concentration at 0 h (ng/mL)

compound="CSCC[C@@H](N)C(=O)O [D-Methionine, D-methionine]" observed=0

* * *

# Procedure summary: in vivo
# Condition: male, Sprague-Dawley, rat, plasma, po, 150 mg/kg, T1/2 (terminal half-life) of D-Methionine, PO 150 mg/kg, solution
Measurement name: half-life (h)

molecule="CSCC[C@@H](N)C(=O)O [D-Methionine, D-methionine]" measurement_name=half-life observed=1.1

* * *

# Procedure summary: in vivo
# Condition: male, Sprague-Dawley, rat, plasma, po, 300 mg/kg, Mean Plasma Concentrations of D-Methionine, PO 300 mg/kg, suspension; 0.50 h
Measurement name: concentration at 0.5 h (ng/mL)

smiles_entry=CSCC[C@@H](N)C(=O)O observed=175
